Reference source for all entries: paper PMC10786891

Biological target: T1, EsCas13d, nuclease-dead (Eubacterium siraeum, UniProt B0MS50, R295A;H300A;R849A;H854A)
T1 sequence: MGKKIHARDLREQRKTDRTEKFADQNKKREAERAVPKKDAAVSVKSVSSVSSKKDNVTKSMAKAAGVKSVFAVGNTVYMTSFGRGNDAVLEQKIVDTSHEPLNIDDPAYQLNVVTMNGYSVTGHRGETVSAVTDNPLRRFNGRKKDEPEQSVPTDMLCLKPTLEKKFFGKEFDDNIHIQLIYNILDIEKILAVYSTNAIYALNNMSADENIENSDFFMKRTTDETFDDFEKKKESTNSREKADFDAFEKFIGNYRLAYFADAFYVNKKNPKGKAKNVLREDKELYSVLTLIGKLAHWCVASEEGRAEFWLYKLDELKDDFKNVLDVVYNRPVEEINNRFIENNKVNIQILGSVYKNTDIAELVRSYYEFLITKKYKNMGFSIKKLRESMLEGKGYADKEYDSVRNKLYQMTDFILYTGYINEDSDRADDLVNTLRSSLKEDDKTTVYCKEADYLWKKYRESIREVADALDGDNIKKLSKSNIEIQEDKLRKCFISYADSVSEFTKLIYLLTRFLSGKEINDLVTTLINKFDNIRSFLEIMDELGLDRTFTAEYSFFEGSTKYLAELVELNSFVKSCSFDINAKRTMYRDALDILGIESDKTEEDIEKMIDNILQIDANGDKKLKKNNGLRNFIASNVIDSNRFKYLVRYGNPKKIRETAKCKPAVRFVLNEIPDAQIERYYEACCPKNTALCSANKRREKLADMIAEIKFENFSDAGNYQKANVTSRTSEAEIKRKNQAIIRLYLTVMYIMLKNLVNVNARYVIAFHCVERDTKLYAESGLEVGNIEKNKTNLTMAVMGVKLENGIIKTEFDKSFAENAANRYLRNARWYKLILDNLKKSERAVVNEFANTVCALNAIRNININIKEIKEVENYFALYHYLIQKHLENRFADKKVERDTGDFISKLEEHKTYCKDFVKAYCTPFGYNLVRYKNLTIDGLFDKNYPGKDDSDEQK
Assay: crRNA (strand 1, pre-loaded); Mg2+; 40 mM Tris-HCl pH 7.5, 150 mM NaCl, 6 mM MgCl2, 1 mM DTT, 0.1% Tween-20, 0.2 mg/ml BSA; 25 C; 10 min per concentration, then washed
Details: tags: His6-TwinStrep-SUMO cleaved; N-terminal SNAP kept (SNAP-Surface 488); label: 3' end held by stalled T7 RNA polymerase
Field: pKd. Provide a value for each of the binders that follow.
Numbers only, as −log10 of the molar value.

Example results:
Name the recorded pKd of the binder listed here: target 1 MT 5'PFS GGA 3'PFS AAG (mixed) RNA 1: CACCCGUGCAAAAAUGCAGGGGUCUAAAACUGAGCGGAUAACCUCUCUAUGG RNA 2: GGGAAUGGAUCCACAUCUACGAAUUCGGACCAUAGAGAGGUUAUCCGCUCAAAGAGAUCGGAAGAGCACACGU 7.62

Name the recorded pKd of the binder listed here: target 1 U19A,A20G (mixed) RNA 1: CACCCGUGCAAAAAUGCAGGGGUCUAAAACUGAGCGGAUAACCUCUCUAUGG RNA 2: GGGAAUGGAUCCACAUCUACGAAUUCGUACCGAAGAGAGGUUAUCCGCUCACCGAGAUCGGAAGAGCACACGU 7.25

Okay, next one:
Name the recorded pKd of the binder listed here: target 1 insA 3' of 13,insA 3' of 6 (mixed) RNA 1: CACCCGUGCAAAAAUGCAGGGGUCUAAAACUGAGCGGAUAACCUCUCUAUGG RNA 2: GGGAAUGGAUCCACAUCUACGAAUUCGUACCAUAGAGAGAGUUAUCCAGCUCACCGAGAUCGGAAGAGCACACGU 8.38
